Where do the numbers come from? From paper PMC12396409.

tested on: T. gondii RH strain (RH-Tub-eYFP) tachyzoites; test: microbe, parasite or virus in culture; assay type: cell-based, Toxoplasma gondii; conditions: library screen at 2 μg/mL, 72 h, % growth, replicate 2
# Tg_72h_%Growth_Rep2 per entry
A number alone suffices; assume %.

Before answering, review these 8 worked examples.
INSERT INTO measurements (compound, tested_system, reported_measurement) VALUES
  ('C=CC(C)(C)[C@]12C[C@@H]3C(=O)Nc4ccccc4C(=O)N3[C@H]1N(C(C)=O)c1ccccc12', 'T. gondii RH strain (RH-Tub-eYFP) tachyzoites', 90.00),
  ('CC(C)CCC[C@@H](C)[C@@H]1CC[C@]2(C)C3=C(CC[C@@]12C)[C@@]1(C)CC[C@H](O)C(C)(C)[C@@H]1CC3 [Dihydroeuphol]', 'T. gondii RH strain (RH-Tub-eYFP) tachyzoites', 102.23),
  ('COCCC[C@H]1O[C@@](O)([C@H](C)C2CC(OC)C(O)/C=C(C)/C=C(C)/C=C(/C)C(O[C@H]3O[C@H](C)[C@@H](OC)[C@H](O)[C@H]3O)C(C)/C=C(C)/C=C(OC)\C=C(/C)C(=O)O2)[C@H](OC)[C@@H](O)[C@]1(C)O[C@H]1C[C@H](O)[C@H](O[C@H]2C[C@@](C)(O)[C@H](O)[C@@H](C)O2)[C@@H](C)O1 (stereo partly shown)', 'T. gondii RH strain (RH-Tub-eYFP) tachyzoites', 0.85),
  ('COc1cc(O)c2c(c1C)C(C)C(O)(CO)OC2=O (stereo not shown)', 'T. gondii RH strain (RH-Tub-eYFP) tachyzoites', 97.07),
  ('CO[C@@H]1[C@@H](O)[C@@H](O)[C@@H](Oc2ccc3c(O)c(NC(=O)c4ccc(O)c(CC=C(C)C)c4)c(=O)oc3c2C)OC1(C)C', 'T. gondii RH strain (RH-Tub-eYFP) tachyzoites', 96.44),
  ('Cc1c2c(c(O)c3c(O)cccc13)C(=O)O[C@@H]2[C@@H]1[C@H](O)C(=O)C(C(N)=O)=C(O)[C@H]1N(C)C', 'T. gondii RH strain (RH-Tub-eYFP) tachyzoites', 111.56),
  ('C=C1CCO[C@]2([C@@H](O)[C@@](C)(O)COC(=O)c3ccccc3)NC(=O)[C@@]1(O)NC2=O [Bicyclomycin benzoate]', 'T. gondii RH strain (RH-Tub-eYFP) tachyzoites', 95.48),
  ('CC(CCCCCCCCCCCCCCOC1OC(CO)C(O)C(O)C1O)C(O)=C1C(=O)C(C)N(C)C1=O (stereo not shown) [Epicoccamide]', 'T. gondii RH strain (RH-Tub-eYFP) tachyzoites', 106.99);

What value of Tg_72h_%Growth_Rep2 has been reported for the following compound? CC[C@H](C)[C@H]1O[C@]2(C=C[C@@H]1C)C[C@@H]1C[C@@H](C/C=C(\C)[C@@H](O[C@H]3C[C@H](OC)[C@@H](O[C@H]4C[C@H](OC)[C@@H](O)[C@H](C)O4)[C@H](C)O3)[C@@H](C)/C=C/C=C3\CO[C@@H]4[C@H](O)C(C)=C[C@H](C(=O)O1)[C@]34O)O2 [Avermectin B1a, epi-]
40.50

Same for COc1c(Cl)c(O)c(Cl)c(C)c1C(=O)O[C@H]1[C@H](O)C[C@H](O[C@H]2[C@@H](O)CC(=O)O[C@@H]2C)O[C@@H]1C
100.30

Same for CC(C)CCCCCC=CCC(=O)N[C@@H](CC(=O)O)C(=O)N[C@@H]1C(=O)N2CCCC[C@@H]2C(=O)N[C@@H](C(C)C(=O)O)C(=O)N[C@@H](CC(=O)O)C(=O)NCC(=O)N[C@@H](CC(=O)O)C(=O)NCC(=O)N[C@H](C(C)N)C(=O)N[C@@H](C(C)C)C(=O)N2CCC[C@H]2C(=O)NC1C (stereo partly shown)
91.61

Same for COc1cc([C@H]2[C@@]3(O)[C@H](O)[C@H]4C[C@]2(O)[C@](O)(C(=O)O4)[C@H]3C(=O)c2ccccc2)oc(=O)c1
91.26

Same for CC(C)c1ncc(Cc2ccccc2)[nH]c1=O
99.21

Same for CC(=O)OCc1c(O)c2c(c3c1OC(=O)c1c(C)cc(O)c(C=O)c1O3)C(O)OC2=O (stereo not shown)
103.13

Same for CCOC(=O)c1c(C)cc(O)cc1O [Ethyl orsellinate]
103.54

Same for CC1=CCCC(C)C(O)C(C)C(O)CCC=CC(C)C(O)C=CC(C)C(O)C(C)=CC(O[C@H]2O[C@H](CO)[C@@H](O)[C@H](O)[C@@H]2O)C(O)CC(O)CC(O)CC(O)C(C)C(O)C(C)C(O)CC(O)CC(O)C=CCC(C(C)C(O)CCCN)OC1=O (stereo partly shown)
106.51
